# test system: UniProt P37231
# experimental details: Reporter gene transactivation, hPPAR-GAL4 gamma
# test settings: transfected Cos-7 cells, Gal-4 luciferase reporter, 24 hours treatment
measured metric: EC50

Enquiry: Could you share which EC50 value was measured for CCOC(=O)C(C)(C)Oc1cccc(CCCCNc2nn(CCCC(F)(F)F)c(=O)n(CC=C(C)C)c2=O)c1 ?
Return: 1 to 3 µM

Enquiry: Could you share which EC50 value was measured for CCCCCCCn1c(=O)c(NCCc2ccc(SC(C)(C)C(=O)O)cc2)nn(CCCC(F)(F)F)c1=O ?
Return: ~10 µM

Enquiry: Could you share which EC50 value was measured for CCCCCCCn1c(=O)c(NCCCOc2ccc(SC(C)(C)C(=O)OCC)cc2)nn(C)c1=O ?
Return: > 10 µM

Enquiry: Could you share which EC50 value was measured for CCCCCCCn1c(=O)c(NCCCc2cccc(OC(C)(C)C(=O)OCC)c2)nn(Cc2ccccc2)c1=O ?
Return: ~10 µM

----------
# test system: human PPARγ (Homo sapiens, UniProt P37231)
# Sequence (P37231 238-503 limits assumed): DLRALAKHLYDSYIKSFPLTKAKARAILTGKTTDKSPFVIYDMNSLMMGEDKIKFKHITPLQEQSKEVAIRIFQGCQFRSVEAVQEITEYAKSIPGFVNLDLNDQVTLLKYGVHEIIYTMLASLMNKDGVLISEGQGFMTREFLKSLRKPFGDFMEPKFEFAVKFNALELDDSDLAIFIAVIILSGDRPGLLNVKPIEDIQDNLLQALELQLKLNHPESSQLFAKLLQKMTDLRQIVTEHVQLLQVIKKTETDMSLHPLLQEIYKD
# experimental details: Reporter gene transactivation, hPPAR-GAL4 gamma
# test settings: transfected Cos-7 cells, Gal-4 luciferase reporter, 24 hours treatment
Answer each item with its documented EC50.

Enquiry: Return EC50 measured with human PPARγ (Homo sapiens, UniProt P37231) given this compound: CCCCCCCn1nc(OCCCc2ccc(OC(C)(C)C(=O)OCC)cc2)c(=O)n(C)c1=O [Example 27]
Return: 3 to 10 µM

Enquiry: Return EC50 measured with human PPARγ (Homo sapiens, UniProt P37231) given this compound: CCCCCCCn1c(=O)c(NCCCCc2cccc(OC(C)(C)C(=O)OCC)c2)nn(Cc2ccccc2)c1=O [Example 89]
Return: 1 to 3 µM

Enquiry: Return EC50 measured with human PPARγ (Homo sapiens, UniProt P37231) given this compound: CCCCCCCn1nc(NCCCc2cccc(OC(C)(C)C(=O)OCC)c2)c(=O)n(Cc2ccccc2)c1=O [Example 72]
Return: 3 to 10 µM

Enquiry: Return EC50 measured with human PPARγ (Homo sapiens, UniProt P37231) given this compound: CCOC(=O)C(C)(C)Oc1ccc(OCCCOc2nn(CCCC(F)(F)F)c(=O)n(CCCC(F)(F)F)c2=O)cc1 [Example 39]
Return: 3 to 10 µM

Enquiry: Return EC50 measured with human PPARγ (Homo sapiens, UniProt P37231) given this compound: CCCCCCCn1nc(NCCc2ccc(SC(C)(C)C(=O)OCC)cc2)c(=O)n(C)c1=O [Example 119]
Return: 0.3 µM

Enquiry: Return EC50 measured with human PPARγ (Homo sapiens, UniProt P37231) given this compound: CCCCCCCn1nc(OCCCOc2cccc(OC(C)(C)C(=O)OCC)c2)c(=O)n(C)c1=O [Example 33]
Return: ~3 µM

Enquiry: Return EC50 measured with human PPARγ (Homo sapiens, UniProt P37231) given this compound: CCOC(=O)C(C)(C)Sc1cccc(CCCCNc2nn(CCCC(F)(F)F)c(=O)n(Cc3ccccc3)c2=O)c1 [Example 100]
Return: > 10 µM

Enquiry: Return EC50 measured with human PPARγ (Homo sapiens, UniProt P37231) given this compound: CCCCCCCn1nc(NCCCCc2cccc(OC(C)(C)C(=O)OCC)c2)c(=O)n(C)c1=O [Example 75]
Return: 3 to 10 µM

Enquiry: Return EC50 measured with human PPARγ (Homo sapiens, UniProt P37231) given this compound: CCCCCCCn1nc(NCCCCc2cccc(OC(C)(C)C(=O)OCC)c2)c(=O)n(Cc2ccccc2)c1=O [Example 91]
Return: 3 to 10 µM

Enquiry: Return EC50 measured with human PPARγ (Homo sapiens, UniProt P37231) given this compound: CCOC(=O)C(C)(C)Oc1cccc(CCCCNc2nn(CCCC(F)(F)F)c(=O)n(C)c2=O)c1 [Example 74]
Return: 3 to 10 µM

Enquiry: Return EC50 measured with human PPARγ (Homo sapiens, UniProt P37231) given this compound: CCCCCCCn1c(=O)c(NCCCCOc2ccc(OC(C)(C)C(=O)OCC)cc2)nn(C)c1=O [Example 50]
Return: ~10 µM
